Where these numbers come from: PubChem BioAssay AID1963961

System: K98450-129-R-PDC multicell spheroids, viability;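 note: spheroids exposed to agents for seven days before read-out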
Assay: Anticancer human tumor K98450-129-R-PDC patient-derived colon adenocarcinoma cell line growth inhibition [PI3K]
Conditions: second compound 0.1 µM; first compound 0.1 µM; hits give low values
Recorded viability, T/C, one value per entry.
quantity.measured: viability, T/C (%)

| compound | unit.tag | test.result |
| --- | --- | --- |
| Cn1ncc(Cl)c1-c1cc(C(=O)NC(CN)Cc2cccc(F)c2)sc1Cl (stereo unspecified) + CC(Nc1ccc2c(c1)OCCn1cc(N3C(=O)OCC3C(F)F)nc1-2)C(N)=O | % | 102 |
| CC1(C)CCC(Nc2ncc(C(F)(F)F)c(-c3c[nH]c4c(P(C)(C)=O)c(C#N)ccc34)n2)CN1 (stereo unspecified) + Cc1nc(NC(=O)N2CCCC2C(N)=O)sc1-c1ccnc(C(C)(C)C(F)(F)F)c1 | % | 104 |
| C#Cc1c(F)ccc2cc(O)cc(-c3ncc4c(N5CC6CCC(C5)N6)nc(OCC56CCCN5CC(F)C6)nc4c3F)c12 (stereo unspecified) + CC(Nc1ccc2c(c1)OCCn1cc(N3C(=O)OCC3C(F)F)nc1-2)C(N)=O | % | 106 |
| CNC(=O)c1ccc(N2C(=S)N(c3ccc(C#N)c(C(F)(F)F)c3)C(=O)C2(C)C)cc1F + Cc1nc(NC(=O)N2CCCC2C(N)=O)sc1-c1ccnc(C(C)(C)C(F)(F)F)c1 | % | 92.2 |
| C#Cc1c(F)ccc2cc(O)cc(-c3ncc4c(N5CC6CCC(C5)N6)nc(OCC56CCCN5CC(F)C6)nc4c3F)c12 (stereo unspecified) + CC(Nc1ncnc2nc[nH]c12)c1cc2cccc(Cl)c2c(=O)n1-c1ccccc1 | % | 98.7 |
| CC(Cn1ccc(-c2ccc(C#N)c(Cl)c2)n1)NC(=O)c1cc(C(C)O)[nH]n1 (stereo unspecified) + COc1c(OCCCN2CCOCC2)ccc2c3n(c(=NC(=O)c4cnc(N)nc4)nc12)CCN3 | % | 79 |
| CC(Cn1ccc(-c2ccc(C#N)c(Cl)c2)n1)NC(=O)c1cc(C(C)O)[nH]n1 (stereo unspecified) + CC(Nc1ncnc2nc[nH]c12)c1cc2cccc(Cl)c2c(=O)n1-c1ccccc1 | % | 113 |
| CC1(C)CCC(CN2CCN(c3ccc(C(=O)NS(=O)(=O)c4ccc(NCC5CCOCC5)c([N+](=O)[O-])c4)c(Oc4cnc5[nH]ccc5c4)c3)CC2)=C(c2ccc(Cl)cc2)C1 + COc1c(OCCCN2CCOCC2)ccc2c3n(c(=NC(=O)c4cnc(N)nc4)nc12)CCN3 | % | 76.8 |
| Cn1nccc1Nc1nccc(-c2ccn(C(CO)c3ccc(Cl)c(F)c3)c(=O)c2)n1 (stereo unspecified) + Cc1nc(NC(=O)N2CCCC2C(N)=O)sc1-c1ccnc(C(C)(C)C(F)(F)F)c1 | % | 104 |
| C[C@@H](NC(=O)c1ncnc(N)c1Cl)c1ncc(C(=O)Nc2cc(C(F)(F)F)c(Cl)cn2)s1 + Cc1nc(NC(=O)N2CCCC2C(N)=O)sc1-c1ccnc(C(C)(C)C(F)(F)F)c1 | % | 98.2 |
| Cn1nccc1Nc1nccc(-c2ccn(C(CO)c3ccc(Cl)c(F)c3)c(=O)c2)n1 (stereo unspecified) + CC(Nc1ccc2c(c1)OCCn1cc(N3C(=O)OCC3C(F)F)nc1-2)C(N)=O | % | 98.5 |
